Form field: GI50 (one value per entry).
test system: NCI-H226 lung; test: NCI tumour cell line growth inhibition, 48 h

Please review the entries below; each comes with its answer.
{"Molecule": "Cc1ccc(C(NC(=O)c2ccccc2)c2ccc3cccnc3c2O)cc1 (stereo not drawn)", "GI50": "0.302 µM"}
{"Molecule": "COc1cc(-c2cc(-c3ccc(Nc4ccnc5cc(Cl)ccc45)cc3)nc(N3CCOCC3)n2)cc(OC)c1OC", "GI50": "11.4 µM"}
{"Molecule": "COc1ccc(C(c2ccc(OCCN(C)C)cc2)c2cc3ccccc3c3ccccc23)cc1 (stereo not drawn)", "GI50": "3.43 µM"}

*Q* Given the entry N#Cc1c(Br)n(C2OC(CO)C(O)C2O)c2ncnc(N)c12 (stereo not drawn) , what GI50 was observed with NCI-H226 lung?
*A* 9.16 µM

*Q* Lab note: need GI50 for CCC(c1ccc(OC)cc1)C(CC)c1ccc(O)c(CN2CCN(C)CC2)c1 (stereo not drawn) on NCI-H226 lung, anyone have it?
*A* 12.4 µM

*Q* Query for NCI-H226 lung: what GI50 does the record show for `Cc1cc(Nc2nc(-c3cccnc3)nc3ccccc23)n[nH]1` ?
*A* 1.39 µM

*Q* Identify the measured GI50 of `COc1cccc(-c2nn(-c3ccccc3)cc2-c2ccnc(NCCNC(=O)Nc3cccc(C(F)(F)F)c3)c2)c1` for NCI-H226 lung.
*A* 2.07 µM

*Q* Checklist item: GI50 tested on NCI-H226 lung, entry `Cc1ccc(/C=C2\CN(C(=O)C(Cl)Cl)C/C(=C\c3ccc(C)cc3)C2=O)cc1` , value?
*A* 0.245 µM

*Q* Test system NCI-H226 lung; read-out GI50; what value for CC(=O)N1N=C(c2ccc(Nc3ccnc4cc(Cl)ccc34)cc2)CC1c1ccc(Cl)cc1 (stereo not drawn) ?
*A* > 100 µM

*Q* What value of GI50 on NCI-H226 lung does CCN1C(=O)CCCc2c1ccc(Nc1ncc(Cl)c(NC3[C@@H](C(N)=O)[C@@H]4C=C[C@H]3C4)n1)c2OC (stereo partly drawn) have?
*A* 1.56 µM

*Q* Record lookup: for NCI-H226 lung, what GI50 belongs to COc1cccc(/C=N/NC(=S)NC2CC3CCC2C3)c1O (stereo not drawn) ?
*A* 2.38 µM

*Q* Quick check: GI50 on NCI-H226 lung, item `Oc1ccc(-c2nc3ccc4[nH]ncc4c3c3c2CCCC3)c(F)c1` ?
*A* 5.26 µM

*Q* Please state recorded GI50 (tested on NCI-H226 lung) of `FC(F)(F)c1ccc(-c2cnc(-n3cc(COCCN4CCCCC4)nn3)nc2NC2CCCCCC2)cc1`
*A* 3.54 µM
